From: patent US11453669B2

Assay type: in vitro ADME
REPORTED CONDITIONS: human, 30 min, 0.5 μmol/L, pH 7.4
MEASUREMENT KIND: residual rate

COMPOUND	MEASURED VALUE
C[C@@H]1CC[C@H]2N(C)C(=O)c3c(O)c(=O)c(-c4nnc(Cc5ccc(F)cc5F)s4)cn3N12 [II-029]	85.3
CN1C(=O)c2c(O)c(=O)c(-c3nnc(Cc4c(F)cc(F)cc4F)s3)cn2N2C[C@@H]3CC[C@@H](C3)[C@@H]12 [II-063]	96.5
CCN1C(=O)c2c(O)c(=O)c(-c3nnc(Cc4ccc(F)cc4)s3)cn2N2C[C@@H]3CC[C@@H](O3)[C@@H]12 [II-050]	103
CN1C(=O)c2c(O)c(=O)c(-c3nnc(Cc4ccc(F)cc4F)s3)cn2N2CCOC[C@@H]12 [II-010]	106
CCN1C(=O)c2c(O)c(=O)c(-c3nnc(Cc4c(F)cc(F)cc4F)s3)cn2N2CC[C@H](C)C[C@@H]12 [II-061]	91.5
CCN1C(=O)c2c(O)c(=O)c(-c3nnc(Cc4c(F)cc(F)cc4F)s3)cn2N2C[C@@H]3CC[C@@H](O3)[C@@H]12 [II-046]	97.2
CCN1C(=O)c2c(O)c(=O)c(-c3nnc(Cc4ccc(F)cc4F)s3)cn2N2C[C@@H]3CC[C@@H](C3)[C@@H]12 [II-051]	92.9
CCN1C(=O)c2c(O)c(=O)c(-c3nnc(Cc4c(F)cc(F)cc4F)s3)cn2N2C[C@@H](C)CC[C@@H]12 [II-068]	91.3

* * *

# key: entry, value: FC (fold change) for mutant strain 1
Tested on: HIV mutant strain 1 (E138K/G140S/Q148H/N155H)
Assay type: cell-based
REPORTED CONDITIONS: FC=EC50 of the mutant strain/EC50 of the wild strain, HeLa-CD4 cells
MEASUREMENT KIND: FC (fold change) for mutant strain 1

CCN1C(=O)c2c(O)c(=O)c(-c3nnc(Cc4c(F)cc(F)cc4F)s3)cn2N2C[C@@H](C)CC[C@@H]12 3.5
CCN1C(=O)c2c(O)c(=O)c(-c3nnc(Cc4ccc(F)cc4F)s3)cn2N2C[C@@H]3CC[C@@H](C3)[C@@H]12 2.5
CCN1C(=O)c2c(O)c(=O)c(-c3nnc(Cc4ccc(F)cc4F)s3)cn2N2CCCC[C@@H]12 5.6
CCN1C(=O)c2c(O)c(=O)c(-c3nnc(Cc4c(F)cc(F)cc4F)s3)cn2N2[C@H](C)CCC[C@@H]12 11
CCN1C(=O)c2c(O)c(=O)c(-c3nnc(Cc4c(F)cc(F)cc4F)s3)cn2N2CC[C@@H](C)C[C@@H]12 3
